Exercise: for every item that follows, state its recorded log10 of IC50.
targetEntity: IDH2-R140Q (Homo sapiens, UniProt P48735, R140Q)
Sequence (P48735 40-452 R140Q): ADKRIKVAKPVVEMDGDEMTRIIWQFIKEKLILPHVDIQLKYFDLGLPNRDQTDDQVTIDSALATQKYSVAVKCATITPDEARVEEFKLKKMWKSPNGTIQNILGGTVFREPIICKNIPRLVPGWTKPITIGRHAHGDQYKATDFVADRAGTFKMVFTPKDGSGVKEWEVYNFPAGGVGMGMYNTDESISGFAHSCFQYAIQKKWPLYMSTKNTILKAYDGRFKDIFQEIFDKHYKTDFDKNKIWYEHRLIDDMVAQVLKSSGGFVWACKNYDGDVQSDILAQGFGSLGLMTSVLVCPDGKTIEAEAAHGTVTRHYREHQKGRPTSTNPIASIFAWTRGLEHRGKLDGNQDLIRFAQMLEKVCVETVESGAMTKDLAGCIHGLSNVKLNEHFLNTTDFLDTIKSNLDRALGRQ
assayDetails: Fluorescent determination of IDH2-R140Q cell activity (2-HG in U87MGR140Q cells)
settings: 72 hours incubation, read-out: IC50 (2-HG inhibition)
Note: values are log10 of IC50 expressed in nM.

Which value of log10 of IC50 has been reported for CCCNc1nc(N[C@H](C)C(F)(F)F)nc(C2=C(F)C(O)[C@H](F)CC2)n1 (single isomer, unassigned) [Compound 230] in the records?
2.82

Fill in: log10 of IC50 of CC(C)Nc1nc(NC(C)C)nc(C2=C(F)C(O)CCC2)n1 (centres unmarked) [Compound 25] is ___
2.82

Look up log10 of IC50 for this compound: C[C@@H](Nc1nc(NCCF)nc(C2=C(F)C(O)CCC2)n1)C(F)(F)F (some centres unmarked) [Compound 240]
2.99

# log10 of IC50 lookup, item OC1C(F)=C(c2nc(NC3CC(F)(F)C3)nc(NC3CC(F)(F)C3)n2)CCC1(F)F (centres unmarked) [Compound 203]
1.99

Which log10 of IC50 is reported for this compound? COC[C@H](C)Nc1nc(N[C@H](C)C(F)(F)F)nc(C2=CC(O)CCC2)n1 (some centres unmarked) [Compound 183]
2.71

###

assayDetails: Metabolic stability test in liver microsomes (mouse)
Type: in vitro ADME
settings: percentage of remaining compound after incubation for 30 minutes vs 0 minute; 1 μM compound; 0.5 mg/mL liver microsomes; 37° C.
Method: Male CD1 mouse liver microsomes was supplied by Research Institute for Liver Diseases (Shanghai) Co., Ltd. Male SD rat liver microsomes was supplied by BioreclamationIVT in US. Phenacetin, glucose-6-phosphate (G-6-P), glucose-6-phosphate dehydrogenase (G-6-PD), and nicotinamide adenine dinucleotide phosphate (NADP) were supplied by Sigma-Aldrich (Missouri, USA). […] The concentration of test compound was determined using LC-MS/MS method. […]
What Mouse liver microsome stability was measured for each of the following?
Kindly answer with a numeric value in %, unit omitted.

Param item = CC(Nc1nc(NC2CC(F)(F)C2)nc(C2=C(F)C(O)CCC2)n1)C(F)(F)F (racemic) ; retrieve measured Mouse liver microsome stability.
82.1

Value lookup for Mouse liver microsome stability; key = C[C@@H](Nc1nc(NC2CC(F)(F)C2)nc(C2=C(F)C(O)C(F)CC2)n1)C(F)(F)F (single isomer, unassigned)
81.4

# get_value(readout='Mouse liver microsome stability', item= [2H]C1([2H])CCC(c2nc(NC3CC(F)(F)C3)nc(N[C@@H](C)C(F)(F)F)n2)=C(F)C1([2H])O (mixture of isomers) )
80.9

What measured Mouse liver microsome stability goes with C[C@H](Nc1nc(N[C@H](C)C(F)(F)F)nc(C2=C(F)C(O)CCC2)n1)C(F)(F)F (mixture of isomers) ?
80.3

Quick one: Mouse liver microsome stability of [2H]C1([2H])CCC(c2nc(NC3CC(F)(F)C3)nc(N[C@@H](C)C(F)(F)F)n2)=C(F)C1O (some centres unmarked) ?
78.9

###

targetEntity: IDH2-R140Q (Homo sapiens, UniProt P48735, R140Q)
assayDetails: Fluorescent determination of IDH2-R140Q cell activity (2-HG in U87MGR140Q cells)
settings: 72 hours incubation, read-out: IC50 (2-HG inhibition)
# IC50 binned as lower = under 100 nM, middle = from 100 nM up to 200 nM, upper = 200 nM and over

Pick a category. Item: [2H]C1(O)CCCC(c2nc(NC3CC(F)(F)C3)nc(NC3CC(F)(F)C3)n2)=C1F (centres unmarked)
lower

Which bin should I file [2H]C1(O)CCCC(c2nc(N[C@H](C)C(F)(F)F)nc(N[C@H](C)C(F)(F)F)n2)=C1F (mixture of isomers) under?
middle

Lab log: [2H]C1(O)C(F)=C(c2nc(NOC(C)(C)C)nc(Nc3ccnc(C(F)(F)F)c3)n2)CCC1(F)F (centres unmarked) — assign IC50 category
lower

Entry C[C@@H](Nc1nc(NC2CC23CC3)nc(C2=C(F)C(O)CCC2)n1)C(F)(F)F (mixture of isomers) belongs to which category?
middle

Hey, which category is C[C@H](Nc1nc(N[C@H](C)C(F)(F)F)nc(C2=C(F)C(O)CCC2)n1)C1CC1 (mixture of isomers) in, do you know?
upper

Which bin should I file OC1C(F)=C(c2nc(NOCC3CC3)nc(Nc3ccnc(C(F)(F)F)c3)n2)CCC1(F)F (centres unmarked) under?
lower

Note: place this compound into its band. Item: C[C@@H](Nc1nc(NC2CC3(C2)CC(F)(F)C3)nc(C2=C(F)C(O)CCC2)n1)C(F)(F)F (mixture of isomers)
middle

Entry C[C@@H](Nc1nc(N[C@H]2CCOC2)nc(C2=C(F)C(O)CCC2)n1)C(F)(F)F (mixture of isomers) belongs to which category?
upper

Textbook exercise: identify the category of the compound given here, OC1CCCC(c2nc(NC3CC3)nc(NC3CC(F)(F)C3)n2)=C1F (centres unmarked) [Compound 49] , according to its measured value.
upper

Bin? [2H]C1(O)C(F)=C(c2nc(NC3CC3)nc(N[C@@H](C)C(F)(F)F)n2)CCC1(F)F (mixture of isomers)
middle

Class for C[C@H](Nc1nc(NOC(C)(C)C)nc(C2=C(F)C(O)C(F)(F)CC2)n1)C(F)(F)F (mixture of isomers) ?
upper

Place this compound in its band: OC1CCCC(c2nc(Nc3ccc(F)cc3)nc(Nc3ccnc(C(F)(F)F)c3)n2)=C1F (centres unmarked)
lower

Bin? CC(C)(O)CNc1nc(Nc2ccc3sncc3c2)nc(C2=C(F)C(O)CCC2)n1 (centres unmarked)
upper

Exercise: read the entry C[C@@H](Nc1nc(NC2CCCCC2)nc(C2=CC(O)CCC2)n1)C(F)(F)F (mixture of isomers) and state which class it falls under.
upper

Assign a bin to C[C@@H](Nc1nc(N[C@H](C)C(F)(F)F)nc(C2=CC(O)CCC2)n1)C(F)(F)F (mixture of isomers)
lower

Just checking, what class would you give "C1=C(c2nc(NCC3CC3)nc(NCC3CC3)n2)CCCC1" here?
upper

Tag the class for C[C@@H](Nc1nc(NCC2CC2)nc(C2=C(F)C(O)CCC2)n1)C(F)(F)F (some centres unmarked)
lower

Quick check: band for CC(C)(C)ONc1nc(Nc2ccnc(C(F)(F)F)n2)nc(C2=C(F)C(O)C(F)(F)CC2)n1 (centres unmarked)
middle

###

Give pIC50 for every item shown.
targetEntity: IDH2-R140Q (Homo sapiens, UniProt P48735, R140Q)
assayDetails: Fluorescent determination of IDH2-R140Q cell activity (2-HG in U87MGR140Q cells)
settings: 72 hours incubation, read-out: IC50 (2-HG inhibition)
For clarity, pIC50 is expressed as the negative log10 of concentration in mol/L.

Would you kindly share the measured pIC50 for CC(C)CNc1nc(N[C@H](C)C(F)(F)F)nc(C2=C(F)C(O)CCC2)n1 (stereo partly shown) [Compound 78] ?
7.16

Requested read-out: pIC50. Entry: CC(C)Nc1nc(N[C@H](C)C(F)(F)F)nc(C2=C(F)C(O)C(F)(F)CC2)n1 (stereo partly shown) [Compound 94]
6.88

For C[C@@H](Nc1nc(NC2CCC(F)(F)CC2)nc(C2=CC(O)CCC2)n1)C(F)(F)F (stereo partly shown) , what is its reported pIC50?
6.75

Quick one: pIC50 of CCCNc1nc(N[C@H](C)C(F)(F)F)nc(C2=CC(O)CCC2)n1 (mixture of isomers) ?
6.76

Consider the molecule CC(C)Nc1nc(Nc2ccc3ccnn3c2)nc(C2=C(F)C(O)CCC2)n1 (racemic) and give its measured pIC50.
6.20

Recorded pIC50 for C[C@@H](Nc1nc(NCC(C)(C)O)nc(C2=CC(O)CCC2)n1)C(F)(F)F (mixture of isomers) , please?
5.55

For the molecule [2H]C1(O)C(F)=C(c2nc(NC(C)C)nc(NC3CC(F)(F)C3)n2)CCC1(F)F (stereo not shown) , what pIC50 is on record?
7.08
